molecular target: IDH1 R132H (Homo sapiens, UniProt O75874, R132H); assay: Assay for IDH1 R132H inhibitors (NADPH/aKG, resazurin detection); assay type: biochemical; settings: enzyme assay of Example 12; read-out: IDH1R132H IC50
Sequence (O75874 whole entry R132H): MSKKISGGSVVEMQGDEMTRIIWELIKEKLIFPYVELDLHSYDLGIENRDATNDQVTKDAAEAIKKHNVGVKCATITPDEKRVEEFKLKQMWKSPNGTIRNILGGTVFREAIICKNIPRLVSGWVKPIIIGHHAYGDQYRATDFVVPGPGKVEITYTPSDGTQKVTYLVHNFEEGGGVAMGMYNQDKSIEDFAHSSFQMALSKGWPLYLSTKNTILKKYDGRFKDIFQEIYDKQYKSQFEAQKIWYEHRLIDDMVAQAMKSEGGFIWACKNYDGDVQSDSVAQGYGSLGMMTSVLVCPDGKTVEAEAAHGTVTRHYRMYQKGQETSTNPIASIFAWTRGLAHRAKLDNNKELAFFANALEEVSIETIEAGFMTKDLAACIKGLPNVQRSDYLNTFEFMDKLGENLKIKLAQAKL
Overview of recorded IC50 for various compounds

{"columns": ["COMPOUND", "IC50"],
 "data": [
  ["C=Cc1ncc(Cl)c(-c2cc(C#N)c(N3CCN(C(=O)C4CC4)[C@H](C4CC4)C3)nc2C2CC2)n1 [Compound 533]", "500 to 1000 nM"],
  ["COCCC(=O)N1CCN(c2nc(C3CC3)c(-c3c(C)cccc3C)cc2C#N)C[C@H]1C [Compound 357]", "500 to 1000 nM"],
  ["C=Cc1nccc2ccc(-c3cc(C#N)c(N4CCN(C(=O)C5CC5)[C@H](C5CC5)C4)nc3C3CC3)cc12 [Compound 710]", "< 500 nM"],
  ["C=Cc1cc(-c2cc(C#N)c(N3CCN(C(=O)CCCOP(=O)(OC(C)(C)C)OC(C)(C)C)[C@H](C4CC4)C3)nc2C2CC2)ccn1 [Compound 804]", "< 500 nM"],
  ["C=Cc1cc(-c2cc(C#N)c(N3CCN(C(=O)CCOC)[C@H](C(C)C)C3)nc2C2CC2)c2ccncc2n1 [Compound 611]", "< 500 nM"],
  ["COCCC(=O)N1CCN(c2nc(C3CC3)c(-c3ccccc3COC)c(C)c2C#N)C[C@H]1C [Compound 348]", "< 500 nM"]
]}

[in] Item COCCC(=O)N1CCN(c2nc(C3CC3)c(OCc3cccc(NC(=O)CBr)c3)cc2C#N)C[C@H]1C [Compound 382] has what recorded IC50?
[out] < 500 nM

[in] Try this compound too: C=Cc1cc(-c2cc(C#N)c(N3CCN(C(=O)CCOC)[C@H](C)C3)nc2C2CC2)cnn1 [Compound 615]
[out] < 500 nM

[in] Next up: C=Cc1cc(-c2cc(C#N)c(N3CCN(C(=O)C[C@H]4CCC(=O)O4)[C@H](C4CC4)C3)nc2C2CC2)ccn1 [Compound 821]
[out] < 500 nM

[in] Then COCCC(=O)N1CCN(c2nc(C3CC3)c(-c3c(OC)cccc3OC)cc2C#N)C[C@H]1C [Compound 316] ?
[out] 500 to 1000 nM

[in] What do you get for COCCC(=O)N1CCN(c2nc(C3CC3)c(-c3cccc(C(=O)N4CCCC4)c3)c(C)c2C#N)C[C@H]1C [Compound 332] ?
[out] 500 to 1000 nM

[in] Continue with COCCC(=O)N1CCN(c2nc(C3CC3)c(-c3ccc4scnc4c3)cc2C#N)C[C@H]1C [Compound 352]
[out] < 500 nM

[in] Same question for COCCC(=O)N1CCN(c2nc(C3CC3)c(-c3cccc(CC(=O)OC)c3)cc2C#N)C[C@H]1C [Compound 291] please.
[out] 500 to 1000 nM

[in] // query: C=Cc1ncc2c(-c3cc(C#N)c(N4CCN(C(=O)CCOC)[C@H](C)C4)nc3C3CC3)cccc2n1 [Compound 603]
[out] < 500 nM

[in] How about this compound: COCCC(=O)N1CCN(c2nc(C3CC3)c(-c3cc(Cl)nc(C#N)c3)cc2C#N)C[C@H]1C [Compound 673]
[out] 500 to 1000 nM

* * *

Target: IDH1 R132H (Homo sapiens, UniProt O75874, R132H)
Test: Assay for IDH1 R132H inhibitors (NADPH/aKG, resazurin detection)
Type: biochemical
Conditions: enzyme assay of Example 12; read-out: IDH1R132H IC50
Experimental: Assays were conducted in a volume of 76 μl assay buffer (150 mM NaCl, 10 mM MgCl2, 20 mM Tris pH 7.5, 0.03% bovine serum albumin) as follows in a standard 384-well plate: To 25 ul of substrate mix (8 uM NADPH, 2 mM aKG), 1 μl of test compound was added in DMSO. […] The conversion of resazurin to resorufin was detected by fluorescent spectroscopy at Ex544 Em590 c/o 590.
Property: IC50; scope: individual compounds

{"columns": ["COMPOUND", "IC50"],
 "data": [
  ["COCCC(=O)N1CCN(c2nc(C3CC3)c(O[C@@H](C)c3ccccc3)cc2C#N)C[C@H]1C [Compound 303]", "< 0.5 µM"],
  ["COCCC(=O)N1CCN(c2nc(C3CC3)c(OCc3cccc(OC)c3)cc2C#N)C[C@H]1C [Compound 280]", "< 0.5 µM"],
  ["C=Cc1cc(-c2c(C3CC3)nc(N3CCN(C(=O)CCCCC)[C@H](C4CC4)C3)c(C#N)c2C)ccn1 [Compound 827]", "< 0.5 µM"],
  ["C=Cc1cc(-c2cc(C#N)c(N3CCN(C(=O)CN4CCC4=O)[C@H](C4CC4)C3)nc2C2CC2)ccn1 [Compound 818]", "< 0.5 µM"],
  ["C=Cc1cc(-c2cc(C#N)c(N3CCN(C(=O)COC)[C@H](C4CC4)C3)nc2C2CC2)nc(N)n1 [Compound 759]", "< 0.5 µM"]
]}

[in] Return reported IC50; argument: C=CC(=O)N1CCC=C(c2c(C3CC3)nc(N3CCN(C(=O)CCOC)[C@H](C)C3)c(C#N)c2C)C1 [Compound 680]
[out] < 0.5 µM

[in] Input C=Cc1cc(-c2cc(C#N)c(N3CCN(C(=O)CCCO)[C@H](C4CC4)C3)nc2C2CC2)ccn1 [Compound 753]
[out] < 0.5 µM

* * *

Reported IC50 values follow for various compounds
target: IDH1 R132H (Homo sapiens, UniProt O75874, R132H); assay: Assay for IDH1 R132H inhibitors (NADPH/aKG, resazurin detection); assay type: biochemical; details: enzyme assay of Example 12; read-out: IDH1R132H IC50

// solved cases for IC50 follow
{"columns": ["COMPOUND", "IC50"],
 "data": [
  ["C=CS(=O)(=O)Nc1cccc(-c2c(C3CC3)nc(N3CCN(C(=O)C4CC4)[C@H](C4CC4)C3)c(C#N)c2C)c1", "< 500 nM"],
  ["COCCC(=O)N1CCN(c2nc(C3CC3)c(-c3cccc(N(C)C)c3)cc2C#N)C[C@H]1C", "500 to 1000 nM"],
  ["COCCC(=O)N1CCN(c2nc(C3CC3)c(-c3cccc(CO)c3)cc2C#N)C[C@H]1C", "500 to 1000 nM"],
  ["C=Cc1cc(-c2c(C3CC3)nc(N3CCN(C(=O)CCOC)[C@H](C4CC4)C3)c(C#N)c2C)c2ccncc2n1", "< 500 nM"],
  ["C=Cc1cc(-c2c(C3CC3)nc(N3CCN(C(=O)CCCO)[C@H](C4CC4)C3)c(C#N)c2C)ccn1", "< 500 nM"]
]}

[in] What IC50 appears in the records for this compound with IDH1 R132H (Homo sapiens, UniProt O75874, R132H)? N#Cc1cc(-c2cccc3cnccc23)c(C2CC2)nc1N1CCN(C(=O)C2CC2)C(CC(F)(F)F)C1 (centres unmarked)
[out] 500 to 1000 nM

[in] Check Cn1ncc(-c2cc(C#N)c(N3CCN(C(=O)C4CC4)[C@H](C4CC4)C3)nc2C2CC2)cc1=O too.
[out] < 500 nM

[in] Same read-out for C=Cc1cc(-c2c(C3CC3)nc(N3CCN(C(=O)CC4CCCC4)[C@H](C4CC4)C3)c(C#N)c2C)ccn1 ?
[out] < 500 nM

[in] Moving on to the next compound: COCCC(=O)N1CCN(c2nc(C3CC3)c(-c3cccc4cnccc34)cc2C#N)C[C@H]1C
[out] < 500 nM

[in] Similarly, C=CS(=O)(=O)Nc1cccc(-c2cc(C#N)c(N3CCN(C(=O)C4CC4)[C@H](C4CC4)C3)nc2C2CC2)c1 ?
[out] < 500 nM

[in] Also, COCCC(=O)N1CCN(c2nc(C3CC3)c(-c3ccc4oc(=O)[nH]c4c3)cc2C#N)C[C@H]1C please.
[out] < 500 nM

[in] What would you report for C=Cc1cc(-c2cc(C#N)c(N3CCN(C(=O)CN4CCCC4=O)[C@H](C4CC4)C3)nc2C2CC2)ccn1 ?
[out] 500 to 1000 nM

* * *

biological target: IDH1 R132H (Homo sapiens, UniProt O75874, R132H); experiment: Assay for IDH1 R132H inhibitors (NADPH/aKG, resazurin detection); assay type: biochemical; details: enzyme assay of Example 12; read-out: IDH1R132H IC50
pIC50: −log10 of the molar value.
Reported pIC50 values for a set of compounds

{"columns": ["COMPOUND", "pIC50"],
 "data": [
  ["COCCC(=O)N1CCN(c2nc(C3CC3)c(-c3cccc(N4CC=CC4=O)c3)cc2C#N)C[C@H]1C", "> 6.30"],
  ["COCCC(=O)N1CCN(c2nc(C3CC3)c(-c3ccccc3OC(F)(F)F)cc2C#N)C[C@H]1C(C)C", "> 6.30"],
  ["COCCC(=O)N1CCN(c2nc(C3CC3)c(-c3cccc4cnccc34)cc2C#N)CC1C(F)(F)F (stereo not drawn)", "> 6.30"],
  ["C=Cc1cc(-c2cc(C#N)c(N3CCN(C(=O)C4CC4)[C@@H](C4CC4)C3)nc2C2CC2)ncn1", "> 6.30"],
  ["CCc1ccccc1-c1c(C2CC2)nc(N2CCN(C(=O)CCOC)[C@H](C)C2)c(C#N)c1C", "> 6.30"]
]}

[in] If you can, please state the reported pIC50 value of N#Cc1cc(Nc2ccnc3ccccc23)c(C2CC2)nc1N1CCN(C(=O)CC(F)(F)F)[C@H](C2CC2)C1 .
[out] > 6.30

[in] Param item: COCCC(=O)N1CCN(c2nc(C3CC3)c(-c3ccc(F)c(C#N)c3)c(C)c2C#N)C[C@H]1C
[out] > 6.30

[in] Try C=Cc1cc(-c2c(C3CC3)nc(N3CCN(C(=O)CCOC)[C@H](C4CC4)C3)c(C#N)c2C)cnn1 next.
[out] > 6.30

[in] Another compound to check: C=Cc1cc(-c2c(C3CC3)nc(N3CCN(C(=O)C=C4CCC4)[C@H](C4CC4)C3)c(C#N)c2C)ccn1
[out] > 6.30

[in] Subsequent entry: C=Cc1ccc2c(-c3cc(C#N)c(N4CCN(C(=O)CCOC)[C@H](C5CC5)C4)nc3C3CC3)cccc2n1
[out] > 6.30

[in] What do we get for C=Cc1cc(-c2cc(C#N)c(N3CCN(C(=O)C4CC4)[C@H](C)C3)nc2C2CC2)ccn1 ?
[out] > 6.30

[in] Request: C=Cc1cc(-c2c(C3CC3)nc(N3CCN(C(=O)CCc4ccco4)[C@H](C4CC4)C3)c(C#N)c2C)ccn1
[out] > 6.30

[in] Can you handle N#Cc1cc(-c2cccc3cnccc23)c(C2CC2)nc1N1CCN(C(=O)C2CC2)C(C(F)F)C1 (stereo not drawn) next?
[out] 6.00 to 6.30

[in] And COCCC(=O)N1CCN(c2nc(C3CC3)c(-c3ccc4cn[nH]c4c3)cc2C#N)C[C@H]1C ?
[out] 6.00 to 6.30

[in] Same question, COCCC(=O)N1CCN(c2nc(C3CC3)c(-c3ccc(N4CCOCC4)cc3)cc2C#N)C[C@H]1C this time
[out] 6.00 to 6.30
